# TARGET_UNDER_TEST: A-Raf kinase (SEQ. ID No: 1) (Homo sapiens (Human), UniProt P10398, Y301D/Y302D)
# Sequence (P10398 other isoform, or with tags, fused parts or gaps Y301D (already in the parent)/Y302D (already in the parent)): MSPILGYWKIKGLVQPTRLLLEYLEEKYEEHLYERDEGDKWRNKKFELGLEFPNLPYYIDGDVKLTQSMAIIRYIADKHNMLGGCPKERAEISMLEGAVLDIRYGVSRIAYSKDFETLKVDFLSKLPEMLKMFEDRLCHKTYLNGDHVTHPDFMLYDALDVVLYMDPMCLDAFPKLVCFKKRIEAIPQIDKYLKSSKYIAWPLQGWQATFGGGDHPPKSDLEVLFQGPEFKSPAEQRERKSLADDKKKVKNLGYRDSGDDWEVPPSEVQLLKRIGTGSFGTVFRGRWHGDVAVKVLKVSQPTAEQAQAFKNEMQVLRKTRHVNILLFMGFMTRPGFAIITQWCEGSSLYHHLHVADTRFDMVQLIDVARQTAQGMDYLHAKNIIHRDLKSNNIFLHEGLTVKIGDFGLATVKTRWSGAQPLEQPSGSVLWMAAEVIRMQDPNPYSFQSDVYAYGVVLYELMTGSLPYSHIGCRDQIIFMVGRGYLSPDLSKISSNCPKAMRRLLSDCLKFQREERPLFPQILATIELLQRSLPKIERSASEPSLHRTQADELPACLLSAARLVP
# TEST_DETAILS: Biochemical Assay for A-Raf (2)
# MEASUREMENT_CONTEXT: Table J, biochemical assay (2); read-out: ARAF (2)
pIC50: −log10 of the molar value.

COMPOUND: CNC(=O)c1cc(-c2cc(-c3cc(NC(=O)c4ccnc(C5CC5)c4)ccc3C)ccn2)ccn1 [Example 460]
pIC50: 6.00 to 6.30
--
COMPOUND: CNC(=O)c1cc(-c2cc(-c3cc(NC(=O)c4ccnc(C(C)(F)F)c4)cnc3C)ccn2)ccn1 [Example 463]
pIC50: 5.00 to 6.00
--
COMPOUND: CNC(=O)c1cc(-c2cc(-c3cc(NC(=O)c4ccnc(C(C)(C)F)c4)ccc3C)cc(C)n2)ccn1 [Example 470]
pIC50: 5.00 to 6.00
--
COMPOUND: Cc1ccc(NC(=O)c2ccnc(C(C)(C)F)c2)cc1-c1ccnc(-c2ccnc(C(=O)NCC#N)c2)c1 [Example 451]
pIC50: 5.00 to 6.00
--
COMPOUND: Cc1ccc(NC(=O)c2ccnc(C(C)(C)F)c2)cc1-c1ccnc(-c2ccnc(C(N)=O)c2)c1 [Example 476]
pIC50: 6.00 to 6.30
--
COMPOUND: Cc1ccc(NC(=O)c2ccnc(C(C)(C)F)c2)cc1-c1cc(-c2ccnc(C(N)=O)c2)ncc1F [Example 490]
pIC50: 5.00 to 6.00
--
COMPOUND: Cc1ccc(NC(=O)c2ccc(C(F)(F)F)cc2)cc1-c1ccnc(-c2ccnc(NC(=O)C3CC3)c2)c1 [Example 501]
pIC50: 5.00 to 6.00
--
COMPOUND: CNC(=O)c1cc(-c2cc(-c3cc(NC(=O)c4ccnc(C(C)C)c4)ccc3C)ccn2)ccn1 [Example 443]
pIC50: 6.00 to 6.30
--
COMPOUND: Cc1ccc(NC(=O)c2ccnc(C(C)(C)F)c2)cc1-c1cc(-c2ccnc(C(N)=O)c2)ncn1 [Example 488]
pIC50: 6.00 to 6.30
--
COMPOUND: Cc1ccc(NC(=O)c2ccnc(C(C)(C)F)c2)cc1-c1ccnc(-c2ccnc(NC(=O)C3CC3)c2)c1 [Example 455]
pIC50: 6.30 to 7.00
--
COMPOUND: CNC(=O)c1cc(-c2cc(-c3cc(NC(=O)c4ccnc(C(C)(F)F)c4)ccc3C)ccn2)ccn1 [Example 441]
pIC50: 6.00 to 6.30
--
COMPOUND: CNC(=O)c1cc(-c2cc(-c3cc(NC(=O)c4ccnc(C(C)(C)F)c4)cnc3C)ccn2)ccn1 [Example 444]
pIC50: 5.00 to 6.00
--
COMPOUND: CNC(=O)c1cc(-c2cncc(-c3cc(NC(=O)c4ccnc(C(C)C)c4)ccc3C)c2)ccn1 [Example 445]
pIC50: 6.00 to 6.30
--
COMPOUND: CNC(=O)c1cc(-c2cc(-c3cc(NC(=O)c4ccnc(C(C)(C)F)n4)ccc3C)ccn2)ccn1 [Example 494]
pIC50: 5.00 to 6.00
--
COMPOUND: Cc1ncc(NC(=O)c2ccnc(C(C)(C)F)c2)cc1-c1ccnc(-c2ccnc(NC(=O)C3CC3)c2)c1 [Example 454]
pIC50: 6.00 to 6.30
--
COMPOUND: CNC(=O)c1cc(-c2cc(-c3cc(NC(=O)c4ccnc(C(C)(C)F)c4)ccc3C(F)(F)F)ccn2)ccn1 [Example 471]
pIC50: 6.30 to 7.00
--
COMPOUND: CNC(=O)c1cc(-c2cc(-c3cc(NC(=O)c4cnnc(C(C)(C)F)c4)ccc3C)ccn2)ccn1 [Example 495]
pIC50: 6.00 to 6.30
--
COMPOUND: CNC(=O)c1cc(-c2cc(-c3cc(NC(=O)c4ccnc(C(C)(C)F)c4)ccc3C)ncn2)ccn1 [Example 474]
pIC50: 6.00 to 6.30
--
COMPOUND: CNC(=O)c1cc(-c2cc(-c3cc(NC(=O)c4ccnc(C(C)(C)F)c4)ccc3C)c(C)cn2)ccn1 [Example 472]
pIC50: 5.00 to 6.00
--
COMPOUND: Cc1ccc(NC(=O)c2ccnc(C(C)(F)F)c2)cc1-c1ccnc(-c2ccnc(NC(=O)C3CC3)c2)c1 [Example 459]
pIC50: 6.30 to 7.00
--
COMPOUND: Cc1ccc(NC(=O)c2ccnc(C3CC3)c2)cc1-c1ccnc(-c2ccnc(NC(=O)C3CC3)c2)c1 [Example 458]
pIC50: 6.30 to 7.00
--
COMPOUND: CNC(=O)c1cc(-c2cc(-c3cc(NC(=O)c4cnnc(C(F)(F)F)c4)ccc3C)ccn2)ccn1 [Example 477]
pIC50: 5.00 to 6.00
--
COMPOUND: Cc1ncc(NC(=O)c2ccnc(C(C)C)c2)cc1-c1ccnc(-c2ccnc(NC(=O)C3CC3)c2)c1 [Example 468]
pIC50: 6.30 to 7.00
--
COMPOUND: CNC(=O)c1cc(-c2cc(-c3cc(NC(=O)c4ccnc(C(C)(C)F)c4)ccc3C)cnn2)ccn1 [Example 473]
pIC50: 5.00 to 6.00
--
COMPOUND: CNC(=O)c1cc(-c2cc(-c3cc(NC(=O)c4ccnc(C5CC5)c4)cnc3C)ccn2)ccn1 [Example 462]
pIC50: 5.00 to 6.00
--
COMPOUND: CNC(=O)c1cc(-c2cc(-c3cc(NC(=O)c4ccnc(C(C)(C)F)c4)ncc3C)ccn2)ccn1 [Example 499]
pIC50: 5.00 to 6.00
--
COMPOUND: CNC(=O)c1cc(-c2cc(-c3cc(NC(=O)c4ccnc(C(C)(C)F)c4)cc(F)c3C)ccn2)ccn1 [Example 480]
pIC50: 5.00 to 6.00
--
COMPOUND: Cc1ccc(NC(=O)c2ccnc(C(C)(C)F)c2)cc1-c1ccnc(-c2ccnc(C(=O)NC3CN(C)C3)c2)c1 [Example 450]
pIC50: 5.00 to 6.00
--
COMPOUND: CNC(=O)c1cc(-c2cc(-c3cc(NC(=O)c4ccnc(C(C)(C)F)c4)ccc3C)cc(OCCO)n2)ccn1 [Example 449]
pIC50: 5.00 to 6.00

###

# Tested on: H2405 cells
# TEST_DETAILS: H2405 Cell Proliferation Assay (1)
# Type: cell-based
# MEASUREMENT_CONTEXT: Homo sapiens, NCI-H2405

MOLECULE: Cc1ccc(NC(=O)c2cc(C3CC3)n(C)n2)cc1-c1cc(-c2ccnc(NC(=O)C3CC3)c2)cnn1
IC50: 100 to 500 nM
--
MOLECULE: CC(=O)Nc1cc(-c2cncc(-c3cc(NC(=O)c4cccc(C(C)(C)C#N)c4)ccc3C)n2)ccn1
IC50: ≤ 100 nM
--
MOLECULE: COC(=O)Nc1cc(-c2cnnc(-c3cc(NC(=O)c4ccnc(C(C)(C)C#N)c4)cnc3C)c2)ccn1
IC50: 1000 to 10000 nM
--
MOLECULE: CC(=O)Nc1cc(-c2cncc(-c3cc(NC(=O)c4ccnc(C(F)(F)F)c4)ccc3C)n2)ccn1
IC50: ≤ 100 nM
--
MOLECULE: Cc1ccc(NC(=O)c2ccnc(C(C)(C)C#N)c2)cc1-c1cncc(-c2cc(NC(=O)C3CC3)ncn2)c1
IC50: ≤ 100 nM
--
MOLECULE: COC(=O)Nc1cc(-c2nccc(-c3cc(NC(=O)c4ccnc(C(C)(C)F)c4)ccc3C)n2)ccn1
IC50: 500 to 1000 nM
--
MOLECULE: Cc1ccc(NC(=O)C2CCOC(C(C)C)C2)cc1-c1cc(-c2ccnc(NC(=O)C3CC3)c2)cnn1 (centres unmarked)
IC50: 500 to 1000 nM
--
MOLECULE: Cc1ccc(NC(=O)c2ccnc(C(C)(C)C#N)c2)cc1-c1ccnc(-c2ccnc(N)c2)c1
IC50: 500 to 1000 nM
--
MOLECULE: CNC(=O)c1cc(-c2cncc(-c3cc(NC(=O)c4ccnc(C(C)(C)F)c4)ccc3C)c2)ccn1
IC50: ≤ 100 nM
--
MOLECULE: CNC(=O)c1cc(-c2cnnc(-c3cc(NC(=O)c4ccnc(C(F)F)c4)cnc3C)c2)ccn1
IC50: 1000 to 10000 nM
--
MOLECULE: Cc1ccc(NC(=O)c2ccnc(C(C)(C)C#N)c2)cc1-c1cncc(-c2cc(NC(=O)C(C)C)ncn2)c1
IC50: ≤ 100 nM
--
MOLECULE: Cc1ccc(NC(=O)c2ccnc(C(F)(F)F)c2)cc1-c1ccnc(-c2ccnc(NC(=O)C3CC3)c2)c1
IC50: ≤ 100 nM
--
MOLECULE: CNC(=O)c1cc(-c2cc(-c3cc(NC(=O)c4ccnc(C(C)(C)C#N)c4)ccc3C)ccn2)ccn1
IC50: ≤ 100 nM
--
MOLECULE: COc1ccc(NC(=O)c2ccnc(C(C)(C)C#N)c2)cc1-c1cccc(-c2cc(NC(=O)C3CC3)ncn2)c1
IC50: 100 to 500 nM
--
MOLECULE: Cc1ccc(NC(=O)c2cnnc(C3CC3)c2)cc1-c1ccnc(-c2ccnc(NC(=O)C3CC3)c2)n1
IC50: 100 to 500 nM
--
MOLECULE: COC(=O)Nc1cc(-c2cnnc(-c3cc(NC(=O)c4ccnc(C(F)F)c4)cnc3C)c2)ccn1
IC50: 1000 to 10000 nM
--
MOLECULE: CNC(=O)c1cc(-c2cnnc(-c3cc(NC(=O)c4ccc(Cl)c(OC)c4)cnc3C)c2)ccn1
IC50: 1000 to 10000 nM
--
MOLECULE: COC(=O)Nc1cc(-c2cccc(-c3cc(NC(=O)c4ccnc(C(C)(C)C#N)c4)cnc3C)c2)ncn1
IC50: 500 to 1000 nM
--
MOLECULE: CNC(=O)c1cc(-c2cnnc(-c3cc(NC(=O)c4ccnc(C(C)(C)C#N)c4)cnc3C)c2)ccn1
IC50: 1000 to 10000 nM
--
MOLECULE: Cc1ncc(NC(=O)c2ccnc(C3CC3)c2)cc1-c1cccc(-c2cc(NC(=O)C3CC3)ncn2)c1
IC50: 100 to 500 nM
--
MOLECULE: Cc1ccc(NC(=O)c2ccnc(C(C)(C)C#N)c2)cc1-c1ccnc(-c2ccnc(C(=O)NC3CC3)c2)c1
IC50: 100 to 500 nM
--
MOLECULE: COC(C)(C)c1cc(C(=O)Nc2ccc(C)c(-c3cc(-c4ccnc(NC(=O)C5CC5)c4)cnn3)c2)ccn1
IC50: ≤ 100 nM
--
MOLECULE: Cc1ncc(NC(=O)c2ccnc(C3CC3)c2)cc1-c1cnc(C)c(-c2ccnc(NC(=O)C3CC3)c2)c1
IC50: 100 to 500 nM
--
MOLECULE: CNC(=O)c1cc(-c2cccc(-c3cc(NC(=O)c4ccnc(C(C)(C)C#N)c4)ccc3C)c2)ncn1
IC50: 100 to 500 nM
--
MOLECULE: CNC(=O)c1cc(-c2cncc(-c3cc(NC(=O)c4ccnc(C(C)(C)C#N)c4)ccc3C)c2)ncn1
IC50: 100 to 500 nM
--
MOLECULE: COC(=O)Nc1cc(-c2cnnc(-c3cc(NC(=O)CN4CCCC4)cnc3C)c2)ccn1
IC50: 1000 to 10000 nM
--
MOLECULE: Cc1ccc(NC(=O)c2ccnc(C(F)(F)F)c2)cc1-c1ccnc(-c2ccnc(N)c2)c1
IC50: 1000 to 10000 nM
--
MOLECULE: Cc1ncc(NC(=O)c2cnn(C(C)(C)C)c2)cc1-c1ccnc(-c2ccnc(NC(=O)C3CC3)c2)n1
IC50: 100 to 500 nM
--
MOLECULE: COC(=O)Nc1cc(-c2cc(-c3cc(NC(=O)c4ccnc(C(C)(C)F)c4)cnc3C)ccn2)ccn1
IC50: 100 to 500 nM
